# target under test: JAK3 (Homo sapiens)
# Construct: 5 μl of catalytic domain recombinant Kinase enzyme+Tyr peptide substrate (Invitrogen, CA)
# Sequence (P52333 822-1111 limits assumed): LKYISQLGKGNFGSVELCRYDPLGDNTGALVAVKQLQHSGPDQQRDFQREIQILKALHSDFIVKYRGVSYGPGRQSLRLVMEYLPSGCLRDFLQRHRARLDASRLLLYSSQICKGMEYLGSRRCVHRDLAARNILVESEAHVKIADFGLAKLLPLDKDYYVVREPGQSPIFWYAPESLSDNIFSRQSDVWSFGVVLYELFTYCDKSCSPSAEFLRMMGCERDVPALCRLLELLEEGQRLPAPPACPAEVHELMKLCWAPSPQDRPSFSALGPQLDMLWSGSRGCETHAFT
# protocol notes: Z'-LYTE kinase assay JAK3
pIC50: −log10 of the molar value.
measured endpoint: pIC50

>>> print(df.to_string())
                      smiles_representation  measured_endpoint        result
0  COc1ccc(Nc2cc(NC[C@H]3CCCN(C(=O)N(C)C)C3)c(C(N)=O)cn2)cc1              pIC50  6.00 to 7.00
1  N#Cc1cccc(Nc2cc(NCc3ccccc3)c(C(N)=O)cn2)c1              pIC50  7.00 to 8.00
2  CN(C(=O)C1CC1)c1ccc(Nc2cc(NCc3cccc4[nH]ccc34)c(C(N)=O)cn2)cc1              pIC50  8.00 to 9.00
3  N#Cc1ccc(Nc2cc(NCc3ccccc3)c(C(N)=O)cn2)cc1C#N              pIC50        < 6.00

Numbers sourced from patent US20150353495A1.
